Source of measurements: the kinase profiling compilation of Christmann-Franck et al. (2016)

Consider the following compounds; for each one, report its residual activity.
- Measured on: MUSK (human)
- Assay info: radiometric filter-binding kinase assay, Kinase HotSpot
- Condition details: compound 0.5 µM; ATP 10 µM
Reply numerically in %, unit not repeated.

## Task Quick one: residual activity of `Nc1ncnc2c1cnn2-c1ccccc1` ?
## Result 88

## Task Param item: `O=c1c(-c2ccc(F)cc2)c(-c2ccncc2)[nH]n1-c1ccc(Cl)cc1`
## Result 102

## Task Param item: `O=c1cc(N2CCOCC2)oc2c(-c3ccccc3)cccc12`
## Result 102

## Task Param item: `O=C1NC(=O)c2cc(Nc3ccc(F)cc3)c(Nc3ccc(F)cc3)cc21`
## Result 90.2

## Task Param item: `CCCCc1c(-c2ccc(O)cc2)[nH]c2nccnc12`
## Result 82

## Task Param item: `COc1cc2c(Nc3ccc(Br)cc3F)ncnc2cc1OCC1CCN(C)CC1`
## Result 94.6

## Task Param item: `COc1cc2c(cc1OC)-c1[nH]nc(Nc3cccc(F)c3)c1C2`
## Result 82.7

## Task Param item: `Cc1cc(Nc2nc(-c3ccccc3)nc3ccccc23)n[nH]1`
## Result 51

====

Consider the following molecules; for each one, report its residual activity.
- Measured on: CAMKK1 (human) (UniProt Q8N5S9)
- Sequence (Q8N5S9 whole entry, looked up): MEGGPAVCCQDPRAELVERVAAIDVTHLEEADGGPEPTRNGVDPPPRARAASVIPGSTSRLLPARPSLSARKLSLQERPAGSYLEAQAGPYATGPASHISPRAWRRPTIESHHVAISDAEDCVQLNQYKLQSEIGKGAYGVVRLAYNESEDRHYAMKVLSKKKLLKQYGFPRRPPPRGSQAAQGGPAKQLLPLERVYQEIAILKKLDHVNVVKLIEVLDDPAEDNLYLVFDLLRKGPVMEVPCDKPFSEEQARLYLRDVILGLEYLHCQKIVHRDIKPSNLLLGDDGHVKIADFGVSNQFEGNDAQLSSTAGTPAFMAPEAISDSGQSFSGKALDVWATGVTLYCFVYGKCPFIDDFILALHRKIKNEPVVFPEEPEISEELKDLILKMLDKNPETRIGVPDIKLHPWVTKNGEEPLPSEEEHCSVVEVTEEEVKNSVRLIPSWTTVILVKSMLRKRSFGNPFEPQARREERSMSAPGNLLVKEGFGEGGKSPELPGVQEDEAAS
- Assay info: radiometric filter-binding kinase assay, Kinase HotSpot
- Condition details: compound 0.5 µM; ATP 10 µM
Reply numerically in %, unit not repeated.

## Task Record lookup: for CAMKK1 (human) (UniProt Q8N5S9), what residual activity belongs to `O=C(c1ccccc1)c1ccc(N2CCOCC2)cc1O` ?
## Result 107

## Task Param item: `Cn1cc(/C=C2\C(=O)Nc3ccc(S(N)(=O)=O)cc32)c2ccccc21`
## Result 44.9

## Task Param item: `c1ccc(-c2cnc(Nc3ccc(OCCN4CCCC4)cc3)s2)cc1`
## Result 56.6

## Task Param item: `COc1cc2c(N3CCN(C(=O)Nc4ccc(OC(C)C)cc4)CC3)ncnc2cc1OCCCN1CCCCC1`
## Result 90.3

## Task Param item: `N#C/C(=C1/Nc2ccccc2S1)c1ccnc(NCCc2cccnc2)n1`
## Result 101

## Task Param item: `COc1cc2ncnc(Nc3ccc(O)c(Br)c3)c2cc1OC`
## Result 95.8

## Task Param item: `CCc1nc(-c2ccc(OC)cc2)[nH]c1-c1ccncc1`
## Result 122

====

- Measured on: PLK3 (human)
- Assay info: radiometric filter-binding kinase assay, Kinase HotSpot
- Condition details: compound 0.5 µM; ATP 10 µM
Consider the following compounds; for each one, report its residual activity.
Reply numerically in %, unit not repeated.

## Task Quick one: residual activity of `FC(F)(F)c1ccc(/C=C/c2nc(COc3ccc(CCCCn4ccnn4)cc3)co2)cc1` ?
## Result 107

## Task Param item: `COc1cccc(-c2cc(=O)c3ccccc3o2)c1N`
## Result 98

## Task Param item: `CCc1nc(-c2ccc(OC)cc2)[nH]c1-c1ccncc1`
## Result 96.9

## Task Param item: `CCOc1cc2ncnc(Nc3cccc(Br)c3)c2cc1OCC`
## Result 97.1

## Task Param item: `O=S(=O)(NCCNC/C=C/c1ccc(Br)cc1)c1cccc2cnccc12`
## Result 98.2

## Task Param item: `N#CCCc1ccc2c(c1)-c1[nH]c3ccc([N+](=O)[O-])cc3c1CC(=O)N2`
## Result 99.7

## Task Param item: `O=c1cc(N2CCOCC2)oc2c(-c3ccccc3)cccc12`
## Result 71.9

====

Consider the following compounds; for each one, report its residual activity.
- Measured on: HCK (human)
- Assay info: radiometric filter-binding kinase assay, Kinase HotSpot
- Condition details: compound 0.5 µM; ATP 10 µM
Reply numerically in %, unit not repeated.

## Task Quick one: residual activity of `Cn1cc(/C=C2\C(=O)Nc3ccc(S(N)(=O)=O)cc32)c2ccccc21` ?
## Result 50

## Task Param item: `CCOc1cc2ncnc(Nc3cccc(Br)c3)c2cc1OCC`
## Result 59.4

## Task Param item: `Nc1ncnc2c1cnn2-c1ccccc1`
## Result 92.4

## Task Param item: `CCc1nc(-c2ccc(OC)cc2)[nH]c1-c1ccncc1`
## Result 95.1

## Task Param item: `Cc1cc(Nc2nc(-c3ccccc3)nc3ccccc23)n[nH]1`
## Result 77.3

## Task Param item: `O=c1[nH]c2ccccc2n1C1CCN(Cc2ccc(-c3nc4cc5[nH]cnc5cc4nc3-c3ccccc3)cc2)CC1`
## Result 99.6

## Task Param item: `c1ccc(-c2cnc(Nc3ccc(OCCN4CCCC4)cc3)s2)cc1`
## Result 98.6

## Task Param item: `COc1cccc(-c2cc(=O)c3ccccc3o2)c1N`
## Result 91.6

## Task Param item: `N#C/C(=C1/Nc2ccccc2S1)c1ccnc(NCCc2cccnc2)n1`
## Result 92.2

## Task Param item: `O=C1NC(=O)c2cc(Nc3ccc(F)cc3)c(Nc3ccc(F)cc3)cc21`
## Result 88.3

## Task Param item: `O=c1c(-c2ccc(F)cc2)c(-c2ccncc2)[nH]n1-c1ccc(Cl)cc1`
## Result 91.1

## Task Param item: `O=c1c2ccccc2[nH]c(=S)n1CCN1CCC(=C(c2ccc(F)cc2)c2ccc(F)cc2)CC1`
## Result 114

## Task Param item: `COc1cc2c(cc1OC)-c1[nH]nc(Nc3cccc(F)c3)c1C2`
## Result 61.9

## Task Param item: `FC(F)(F)c1ccc(/C=C/c2nc(COc3ccc(CCCCn4ccnn4)cc3)co2)cc1`
## Result 93.9

## Task Param item: `O=C(c1ccccc1)c1ccc(N2CCOCC2)cc1O`
## Result 114

## Task Param item: `O=S(=O)(NCCNC/C=C/c1ccc(Br)cc1)c1cccc2cnccc12`
## Result 99.4

## Task Param item: `O=c1cc(N2CCOCC2)oc2c(-c3ccccc3)cccc12`
## Result 98.3

## Task Param item: `COc1cc2ncnc(Nc3ccc(O)c(Br)c3)c2cc1OC`
## Result 52.2

## Task Param item: `COc1cc2c(N3CCN(C(=O)Nc4ccc(OC(C)C)cc4)CC3)ncnc2cc1OCCCN1CCCCC1`
## Result 93.2

====

- Measured on: RPS6KA2 KD1 KD2 (human)
- Assay info: radiometric filter-binding kinase assay, Kinase HotSpot
- Condition details: compound 0.5 µM; ATP 10 µM
Consider the following compounds; for each one, report its residual activity.
Reply numerically in %, unit not repeated.

## Task Quick one: residual activity of `O=C(O)c1ccc2c3c1cccc3c(=O)n1c3ccccc3nc21` ?
## Result 90.5

## Task Param item: `COc1cc2c(cc1OC)-c1[nH]nc(Nc3cccc(F)c3)c1C2`
## Result 91.4

## Task Param item: `Cn1cc(/C=C2\C(=O)Nc3ccc(S(N)(=O)=O)cc32)c2ccccc21`
## Result 9.26

## Task Param item: `Nc1ncnc2c1cnn2-c1ccccc1`
## Result 92.5

## Task Param item: `O=C(c1ccccc1)c1ccc(N2CCOCC2)cc1O`
## Result 102

## Task Param item: `N#Cc1c(NC(=O)c2cccc3ccccc23)sc2c1CCCC2`
## Result 95.3

## Task Param item: `O=C1NC(=O)c2cc(Nc3ccc(F)cc3)c(Nc3ccc(F)cc3)cc21`
## Result 98.7

## Task Param item: `N#C/C(=C1/Nc2ccccc2S1)c1ccnc(NCCc2cccnc2)n1`
## Result 89.6

## Task Param item: `N/C(=N\N=C/c1ccc(-c2cccc([N+](=O)[O-])c2)o1)N[N+](=O)[O-]`
## Result 94.5

## Task Param item: `N#CCCc1ccc2c(c1)-c1[nH]c3ccc([N+](=O)[O-])cc3c1CC(=O)N2`
## Result 24.4

## Task Param item: `O=C1NC(=O)c2c1c1c3ccccc3[nH]c1c1[nH]c3cc(Br)ccc3c21`
## Result 37.9

## Task Param item: `O=c1c2ccccc2[nH]c(=S)n1CCN1CCC(=C(c2ccc(F)cc2)c2ccc(F)cc2)CC1`
## Result 107

## Task Param item: `COc1cc2c(Nc3ccc(Br)cc3F)ncnc2cc1OCC1CCN(C)CC1`
## Result 85.9

## Task Param item: `O=c1[nH]c2ccccc2n1C1CCN(Cc2ccc(-c3nc4cc5[nH]cnc5cc4nc3-c3ccccc3)cc2)CC1`
## Result 101

## Task Param item: `CCOc1cc2ncnc(Nc3cccc(Br)c3)c2cc1OCC`
## Result 74.5

## Task Param item: `O=S(=O)(NCCNC/C=C/c1ccc(Br)cc1)c1cccc2cnccc12`
## Result 79.2

## Task Param item: `CCCCc1c(-c2ccc(O)cc2)[nH]c2nccnc12`
## Result 87.7

## Task Param item: `COc1cccc(-c2cc(=O)c3ccccc3o2)c1N`
## Result 96.4

## Task Param item: `Cc1cc(Nc2nc(-c3ccccc3)nc3ccccc23)n[nH]1`
## Result 50.7

## Task Param item: `O=c1cc(N2CCOCC2)oc2c(-c3ccccc3)cccc12`
## Result 92.4

## Task Param item: `COc1cc2c(N3CCN(C(=O)Nc4ccc(OC(C)C)cc4)CC3)ncnc2cc1OCCCN1CCCCC1`
## Result 98.6
